meta.source: PubChem BioAssay (NCI)

assay.notes: NCI Yeast Anticancer Drug Screen. Data for the sgs1 mgt1 strain (AID 161);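 further: 0% = growth of cultures given vehicle only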
test.conditions: S. cerevisiae sgs1 mgt1 strain, at 50.0 µM, stronger effect = higher value
Compounds without any hit were thinned out: in the full panel of roughly 79,000, 15% have a hit.
# maps each entry to its growth inhibition

| compound | growth inhibition [%] |
| --- | --- |
| Cc1[nH]c(=O)n2c(C)nnc2c1C(=O)O | 1.95 |
| Cc1ccc(S(=O)(=O)n2ccnc2)cc1 | -1.25 |
| O=C1C(=O)c2ccccc2C(O)=C1CC=C(Cl)Cl | -5.6 |
| Cc1cccc(C)c1/[N+]([O-])=C/c1cccc([N+](=O)[O-])c1 | -3.3 |
| CC12CCC3c4ccc(O)cc4CCC3C1CC(OC1OC(C(=O)O)C(O)C(O)C1O)C2O (centres undefined) | 13.5 |
| Nc1c(Cl)ncnc1Cl | -16.4 |
| Cc1ccc(NC(=S)N2CCCC2)cc1 | -18.8 |
| Clc1ccccc1C(Nc1nc2ccccc2s1)Nc1nc2ccccc2s1 | -10.9 |
| CCC(C)(N)C(=O)O (centres undefined) | 5.1 |
